// values below are reported Relative potency
- assayed.target: Prothrombin (Bos taurus) (UniProt P00735)
- protocol.summary: Relative potency for fibrin clot inhibition compared to hirudin55-65.
- Format: functional
- Parameters: unit not given here
Square brackets hold non-standard residues; d marks the D form. Peptide text beside a SMILES is read from it. sY = N[C@@H](Cc1ccc(OS(=O)(=O)O)cc1)C(=O)O; Sar = CNCC(=O)O
measurement.label: Relative potency

1) CC[C@H](C)[C@H](NC(=O)[C@H](CCC(=O)O)NC(=O)[C@H](CCC(=O)O)NC(=O)[C@H](Cc1ccccc1)NC(=O)[C@H](CC(=O)O)NC(=O)CN)C(=O)N(C)CC(=O)N[C@@H](CCC(=O)O)C(=O)N[C@@H](CCC(=O)O)C(=O)N[C@@H](Cc1ccc(OS(=O)(=O)O)cc1)C(=O)N[C@@H](CC(C)C)C(=O)N[C@@H](CCC(N)=O)C(=O)O (H-GDFEEI[Sar]EE[sY]LQ-OH)    41
2) CC[C@H](C)[C@H](NC(=O)[C@H](CCC(=O)O)NC(=O)[C@H](CCC(=O)O)NC(=O)[C@H](CCC(=O)O)NC(=O)[C@@H](N)CC(=O)O)C(=O)N1CCC[C@H]1C(=O)N[C@@H](CCC(=O)O)C(=O)N[C@@H](CCC(=O)O)C(=O)N[C@@H](Cc1ccc(OS(=O)(=O)O)cc1)C(=O)N[C@@H](CC(C)C)C(=O)N[C@@H](CCC(N)=O)C(=O)O (H-DEEEIPEE[sY]LQ-OH)    < 2
3) CC[C@H](C)[C@H](NC(=O)[C@H](CCC(=O)O)NC(=O)[C@H](CCC(=O)O)NC(=O)[C@H](CC(C)C)NC(=O)[C@@H](N)CC(=O)O)C(=O)N1CCC[C@H]1C(=O)N[C@@H](CCC(=O)O)C(=O)N[C@@H](CCC(=O)O)C(=O)N[C@@H](Cc1ccc(OS(=O)(=O)O)cc1)C(=O)N[C@@H](CC(C)C)C(=O)N[C@@H](CCC(N)=O)C(=O)O (H-DLEEIPEE[sY]LQ-OH)    < 2

---

- assayed.target: Prothrombin (Bos taurus) (UniProt P00735)
- protocol.summary: Relative potency for fibrin clot inhibition compared to hirudin55-65.
- Assay type: functional
- Design: unit not given here
Square brackets hold non-standard residues; d marks the D form. Peptide text beside a SMILES is read from it. sY = N[C@@H](Cc1ccc(OS(=O)(=O)O)cc1)C(=O)O
Each record here notes measured Relative potency.
measurement.label: Relative potency

1) CC[C@H](C)[C@H](NC(=O)[C@H](CCC(=O)O)NC(=O)[C@H](CCC(=O)O)NC(=O)[C@H](Cc1ccccc1)NC(=O)[C@@H](N)CC(=O)O)C(=O)N1CCC[C@H]1C(=O)N[C@@H](CCC(=O)O)C(=O)N[C@@H](CCC(=O)O)C(=O)N[C@@H](C)C(=O)N[C@@H](CC(C)C)C(=O)N[C@@H](CCC(N)=O)C(=O)O (H-DFEEIPEEALQ-OH)    52
2) CC[C@H](C)[C@H](NC(=O)[C@H](C)NC(=O)[C@H](CCC(=O)O)NC(=O)[C@H](Cc1ccccc1)NC(=O)[C@@H](N)CC(=O)O)C(=O)N1CCC[C@H]1C(=O)N[C@@H](CCC(=O)O)C(=O)N[C@@H](CCC(=O)O)C(=O)N[C@@H](Cc1ccc(OS(=O)(=O)O)cc1)C(=O)N[C@@H](CC(C)C)C(=O)N[C@@H](CCC(N)=O)C(=O)O (H-DFEAIPEE[sY]LQ-OH)    53
